- measurement.target: 5-HT1D (r) (Rattus norvegicus)
- Construct: host or cells: CHO cells
- Sequence (P28565 whole entry): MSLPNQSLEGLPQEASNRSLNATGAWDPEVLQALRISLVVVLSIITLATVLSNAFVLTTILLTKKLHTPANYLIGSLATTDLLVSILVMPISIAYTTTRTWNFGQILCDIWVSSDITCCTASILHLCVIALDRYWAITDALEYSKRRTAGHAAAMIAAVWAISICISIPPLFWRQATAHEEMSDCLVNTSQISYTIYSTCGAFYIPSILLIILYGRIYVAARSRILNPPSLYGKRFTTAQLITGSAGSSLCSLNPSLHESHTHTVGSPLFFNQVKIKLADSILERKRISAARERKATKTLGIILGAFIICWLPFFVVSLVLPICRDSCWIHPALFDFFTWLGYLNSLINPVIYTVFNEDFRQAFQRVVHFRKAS
- assay.name: Competition assay to measure binding affinity at 5-HT1D receptor
- measurement.context: test ligand 10 μM; [3H]serotonin 1 nM
measurement.kind: HT1D, percent of control-specific binding (%)

# molecule, unit.label, observed.measurement
rows = [
    ("CNCC[C@H](Oc1cccc2ccccc12)c1cccs1 [Duloxetine, reference compound]", "%", 63),
    ("CC(C)(C)OC(=O)NC1CN(CCc2ccc3c(c2)OCO3)C1 [A(XV)]", "%", 29),
    ("O=C(Cc1c(Br)ccc2c1OCO2)N1CCCC1 [A(XXVI)]", "%", 0),
    ("COc1cc2c(cc1CC(=O)N1CCCC1)OCO2 [A(XXI)]", "%", 14),
    ("CC(Cc1ccc2c(c1)OCO2)NC1CCC1 (centres unmarked) [A(I)]", "%", 0),
]

---

- measurement.target: D2 (h) (Homo sapiens, UniProt P14416)
- Construct: host or cells: HEK-293 cells
- Sequence (P14416 whole entry): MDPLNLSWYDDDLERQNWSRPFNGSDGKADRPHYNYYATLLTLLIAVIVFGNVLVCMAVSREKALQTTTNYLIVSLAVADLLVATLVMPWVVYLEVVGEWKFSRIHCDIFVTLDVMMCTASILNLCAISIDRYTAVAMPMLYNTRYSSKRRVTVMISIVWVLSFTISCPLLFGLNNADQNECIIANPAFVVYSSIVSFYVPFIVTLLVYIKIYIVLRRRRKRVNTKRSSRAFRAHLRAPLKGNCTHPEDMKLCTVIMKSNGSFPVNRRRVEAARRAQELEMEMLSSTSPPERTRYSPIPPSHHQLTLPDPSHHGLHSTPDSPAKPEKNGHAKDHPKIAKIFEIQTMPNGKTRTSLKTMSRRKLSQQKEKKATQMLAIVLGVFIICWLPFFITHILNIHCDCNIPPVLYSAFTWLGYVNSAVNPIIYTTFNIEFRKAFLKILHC
- assay.name: Competition assay to measure binding affinity at D2L receptor
- measurement.context: test ligand 10 μM; [3H]methylspiperone 0.3 nM
// reported D2, percent of control-specific binding for each item listed

# molecule, D2, percent of control-specific binding
data = [
    ("N[C@@H](Cc1c[nH]c2ccccc12)C(=O)O [tryptophan, reference compound]", "−19%"),
    ("COc1cc(CC(C)N)c(OC)cc1Br (stereo not shown) [DOB, reference compound]", "9%"),
    ("CC(Cc1ccc2c(c1)OCO2)N1CC(NC(=O)OC(C)(C)C)C1 (stereo not shown) [A(IV)]", "37%"),
    ("CC(Cc1ccc2c(c1)OCO2)N1CCC1 (stereo not shown) [A(II)]", "13%"),
    ("O=C(Cc1c(Br)ccc2c1OCO2)N1CCCC1 [A(XXVI)]", "0%"),
    ("N#Cc1ccc2[nH]cc(CCCCN3CCN(c4ccc5oc(C(N)=O)cc5c4)CC3)c2c1 [Vilazodone, reference compound]", "97%"),
    ("CC(Cc1ccc2c(c1)OCCO2)NCc1ccc2c(c1)OCCO2 (stereo not shown) [A(XIII)]", "28%"),
    ("Cc1ccc(Sc2ccccc2N2CCNCC2)c(C)c1 [vortioxetine, reference compound]", "51%"),
    ("CNCC[C@H](Oc1cccc2ccccc12)c1cccs1 [Duloxetine, reference compound]", "24%"),
    ("COc1cc2c(cc1CC(=O)NCCO)OCO2 [A(XXII)]", "0%"),
    ("CC(Cc1ccc2c(c1)OCO2)NC1CCC1 (stereo not shown) [A(I)]", "15%"),
    ("O=C(Cc1ccc2c(c1)OC(F)(F)O2)N1CCCC1 [A(XXVII)]", "0%"),
    ("CC(Cc1ccc2c(c1)OCO2)N1CCOCC1 (stereo not shown) [A(III)]", "12%"),
    ("CCOc1c(OC)cc(CCN)cc1OC [escaline]", "5%"),
    ("COc1cc2c(cc1CNC(C)Cc1ccc3c(c1)OCO3)OCO2 (stereo not shown) [A(V)]", "19%"),
    ("O=C(Cc1cc2c(cc1Br)OCO2)NCCO [A(XIX)]", "0%"),
    ("CN(C)CCCN1c2ccccc2CCc2ccccc21 [Imipramine, reference compound]", "82%"),
    ("COc1ccc2cccc(CCNC(C)=O)c2c1 [Agomelatine, reference compound]", "−4%"),
    ("OCCNCCc1cc2c(cc1Br)OCO2 [A(XXX)]", "4%"),
    ("c1cc2c(cc1CCN1CCOCC1)OCO2 [A(VII)]", "3%"),
    ("Brc1cc2c(cc1CCN1CCCC1)OCO2 [A(XXV)]", "21%"),
    ("CC(C)(C)OC(=O)NC1CN(CCc2ccc3c(c2)OCO3)C1 [A(XV)]", "0%"),
]

---

- measurement.target: human serotonin transporter (SERT) (Homo sapiens, UniProt P31645)
- Construct: purchased PerkinElmer RBHSTM400UA
- Sequence (P31645 whole entry): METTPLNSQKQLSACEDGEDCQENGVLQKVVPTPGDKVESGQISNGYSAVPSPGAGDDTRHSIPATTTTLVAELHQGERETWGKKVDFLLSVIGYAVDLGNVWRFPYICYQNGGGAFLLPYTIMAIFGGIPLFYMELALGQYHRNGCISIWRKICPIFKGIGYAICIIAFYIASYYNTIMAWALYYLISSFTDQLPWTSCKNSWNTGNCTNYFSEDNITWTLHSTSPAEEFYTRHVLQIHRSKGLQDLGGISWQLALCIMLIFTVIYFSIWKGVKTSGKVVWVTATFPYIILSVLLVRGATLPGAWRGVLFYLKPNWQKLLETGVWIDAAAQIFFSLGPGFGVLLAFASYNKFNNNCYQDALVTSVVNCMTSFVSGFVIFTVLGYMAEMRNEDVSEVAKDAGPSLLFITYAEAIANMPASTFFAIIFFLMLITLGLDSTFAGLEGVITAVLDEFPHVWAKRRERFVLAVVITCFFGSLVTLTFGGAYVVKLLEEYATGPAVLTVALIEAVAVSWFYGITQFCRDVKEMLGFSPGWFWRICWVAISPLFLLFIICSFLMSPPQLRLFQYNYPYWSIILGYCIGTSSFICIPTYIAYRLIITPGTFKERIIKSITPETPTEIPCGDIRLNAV
- assay.name: biochemical
- Format: binding
- measurement.context: read-out: SERT, Ki
pKi: −log10 of the molar value.
// reported pKi for each item listed

# compound, measurement.target, pKi
measured = [
    ("CCOc1c(OC)cc(CCN)cc1OC", "human serotonin transporter (SERT) (Homo sapiens, UniProt P31645)", 3.95),
    ("CNC(C)Cc1ccc2c(c1)OCO2 (stereo not drawn) [MDMA, reference compound]", "human serotonin transporter (SERT) (Homo sapiens, UniProt P31645)", 5.24),
    ("COc1cc(CCN)c(OC)cc1Br [2C-B, reference compound]", "human serotonin transporter (SERT) (Homo sapiens, UniProt P31645)", 4.94),
]

---

- measurement.target: 5-HT1A receptor (Homo sapiens)
- Construct: purchased Perkin Elmer 6110501400UA
- Sequence (P08908 whole entry): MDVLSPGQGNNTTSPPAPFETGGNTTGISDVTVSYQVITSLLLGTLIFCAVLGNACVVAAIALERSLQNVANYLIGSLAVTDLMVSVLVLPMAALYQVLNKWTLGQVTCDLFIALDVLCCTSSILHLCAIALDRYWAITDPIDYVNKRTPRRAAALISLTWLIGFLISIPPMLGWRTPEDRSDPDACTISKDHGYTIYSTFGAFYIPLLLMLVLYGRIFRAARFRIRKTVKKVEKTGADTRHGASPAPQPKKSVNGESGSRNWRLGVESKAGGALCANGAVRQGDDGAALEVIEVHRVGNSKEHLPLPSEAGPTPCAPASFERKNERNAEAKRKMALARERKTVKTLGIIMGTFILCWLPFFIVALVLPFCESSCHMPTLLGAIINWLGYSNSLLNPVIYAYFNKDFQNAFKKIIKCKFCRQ
- assay.name: Functional 5-HT1A receptor cAMP assay in CHO-K1/5-HT1A/Gα15 cells
- Format: cell-based
- measurement.context: reduction of cAMP in +5-HT1A cells stimulated with 4 μM forskolin, 20 min; read-out: 5-HT1A, EC50
pEC50: −log10 of the molar value.
// reported pEC50 for each item listed
measurement.kind: pEC50

# molecule, comparison.sign, observed.measurement
records = [
    ("CNC(C)Cc1ccc2c(c1)OCO2 (centres unmarked) [MDMA, reference compound]", "<", 3.00),
    ("COc1cc(CCN)c(OC)cc1Br [2C-B, reference compound]", "=", 5.23),
]

---

- measurement.target: NET (h) (Homo sapiens, UniProt P23975)
- Construct: host or cells: CHO cells
- Sequence (P23975 whole entry): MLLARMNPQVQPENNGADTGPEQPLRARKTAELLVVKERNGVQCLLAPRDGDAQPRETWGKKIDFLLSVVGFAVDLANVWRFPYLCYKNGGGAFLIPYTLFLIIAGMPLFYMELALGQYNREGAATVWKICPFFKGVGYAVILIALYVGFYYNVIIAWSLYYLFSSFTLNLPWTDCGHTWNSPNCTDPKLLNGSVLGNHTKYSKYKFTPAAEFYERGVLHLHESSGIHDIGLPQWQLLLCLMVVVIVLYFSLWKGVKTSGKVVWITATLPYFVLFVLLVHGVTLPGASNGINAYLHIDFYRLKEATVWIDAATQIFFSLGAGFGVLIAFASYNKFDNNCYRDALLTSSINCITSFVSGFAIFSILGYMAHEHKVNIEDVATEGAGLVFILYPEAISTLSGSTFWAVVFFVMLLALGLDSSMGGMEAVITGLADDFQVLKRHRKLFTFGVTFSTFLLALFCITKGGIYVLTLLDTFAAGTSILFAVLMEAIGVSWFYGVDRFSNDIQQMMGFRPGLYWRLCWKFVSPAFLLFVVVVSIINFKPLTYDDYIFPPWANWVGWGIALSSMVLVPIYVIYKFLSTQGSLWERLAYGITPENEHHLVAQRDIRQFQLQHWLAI
- assay.name: Competition assay to measure binding affinity at norepinephrine transporter (NET)
- measurement.context: test ligand 10 μM; [3H]nisoxetine 1 nM
// reported NET, percent of control-specific binding for each item listed

# compound, NET, percent of control-specific binding (%)
records = [
    ("CC(Cc1ccc2c(c1)OCCO2)NCc1ccc2c(c1)OCCO2 (centres unmarked)", 50),
    ("N#Cc1ccc2[nH]cc(CCCCN3CCN(c4ccc5oc(C(N)=O)cc5c4)CC3)c2c1 [Vilazodone, reference compound]", 99),
    ("CN(C)CCCN1c2ccccc2CCc2ccccc21 [Imipramine, reference compound]", 99),
    ("CC(Cc1ccc2c(c1)OCCO2)NCc1ccc2c(c1)OCO2 (centres unmarked)", 69),
    ("CC(Cc1ccc2c(c1)OCCO2)NCc1ccccc1 (centres unmarked)", 88),
]

---

- measurement.target: alpha2A (h) (Homo sapiens)
- Construct: host or cells: CHO cells
- Sequence (P08913 1-465): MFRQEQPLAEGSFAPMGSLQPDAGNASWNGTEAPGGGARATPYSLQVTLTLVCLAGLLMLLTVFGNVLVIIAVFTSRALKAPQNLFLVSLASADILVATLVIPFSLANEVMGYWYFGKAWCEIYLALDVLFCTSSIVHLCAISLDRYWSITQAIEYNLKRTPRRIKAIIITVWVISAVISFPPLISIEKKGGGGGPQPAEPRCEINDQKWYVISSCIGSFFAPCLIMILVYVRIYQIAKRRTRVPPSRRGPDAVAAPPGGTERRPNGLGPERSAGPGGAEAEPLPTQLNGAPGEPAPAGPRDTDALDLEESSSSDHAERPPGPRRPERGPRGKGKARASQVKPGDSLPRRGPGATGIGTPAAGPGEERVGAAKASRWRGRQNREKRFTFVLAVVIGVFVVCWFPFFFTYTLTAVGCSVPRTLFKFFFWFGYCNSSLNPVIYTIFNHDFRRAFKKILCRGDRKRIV
- assay.name: Competition assay to measure binding affinity at alpha2A receptor
- measurement.context: test ligand 10 μM; [3H]RX 821002 1 nM; read-out: α-2A, percent of control-specific binding
// reported inhibition at 10 µM for each item listed
measurement.kind: inhibition at 10 µM

# molecule, measurement.kind, observed.measurement
records = [
    ("c1cc2c(cc1CCN1CCOCC1)OCO2 [A(VII)]", "inhibition at 10 µM", "5%"),
    ("N[C@@H](Cc1c[nH]c2ccccc12)C(=O)O [tryptophan, reference compound]", "inhibition at 10 µM", "-4%"),
    ("Cc1ccc(Sc2ccccc2N2CCNCC2)c(C)c1 [vortioxetine, reference compound]", "inhibition at 10 µM", "62%"),
    ("N#Cc1ccc2[nH]cc(CCCCN3CCN(c4ccc5oc(C(N)=O)cc5c4)CC3)c2c1 [Vilazodone, reference compound]", "inhibition at 10 µM", "65%"),
]

---

- measurement.target: 5-HT2C (h) (Homo sapiens, UniProt P28335)
- Construct: host or cells: HEK-293 cells
- Sequence (P28335 33-458): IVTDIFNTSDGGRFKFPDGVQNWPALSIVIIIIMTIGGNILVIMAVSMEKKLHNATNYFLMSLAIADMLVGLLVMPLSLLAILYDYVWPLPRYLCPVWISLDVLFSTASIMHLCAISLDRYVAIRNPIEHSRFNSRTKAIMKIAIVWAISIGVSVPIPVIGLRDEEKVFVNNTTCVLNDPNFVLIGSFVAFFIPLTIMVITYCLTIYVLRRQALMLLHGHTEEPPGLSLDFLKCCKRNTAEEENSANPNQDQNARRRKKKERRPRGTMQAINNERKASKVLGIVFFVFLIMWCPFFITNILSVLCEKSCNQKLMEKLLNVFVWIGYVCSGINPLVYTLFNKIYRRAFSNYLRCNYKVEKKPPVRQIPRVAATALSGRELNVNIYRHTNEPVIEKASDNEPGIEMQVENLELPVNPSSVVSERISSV
- assay.name: Competition assay to measure binding affinity at 5-HT2C receptor
- measurement.context: test ligand 10 μM; [125I](±)DOI 0.1 nM
measurement.kind: HT2C, percent of control-specific binding (%)

# molecule, unit.label, observed.measurement
measured = [
    ("Brc1cc2c(cc1CCN1CCCC1)OCO2", "%", 87),
    ("FC1(F)Oc2ccc(CCN3CCCC3)cc2O1", "%", 53),
    ("CC(Cc1ccc2c(c1)OCCO2)NCc1ccc2c(c1)OCO2 (stereo not drawn)", "%", 31),
    ("COc1ccc2cccc(CCNC(C)=O)c2c1 [Agomelatine, reference compound]", "%", 92),
    ("COc1cc2c(cc1CNC(C)Cc1ccc3c(c1)OCCO3)OCO2 (stereo not drawn)", "%", 63),
    ("Cc1ccc(Sc2ccccc2N2CCNCC2)c(C)c1 [vortioxetine, reference compound]", "%", 99),
    ("CC(Cc1ccc2c(c1)OCO2)NCc1cc2c(cc1Br)OCO2 (stereo not drawn)", "%", 97),
    ("CC(Cc1ccc2c(c1)OCO2)N1CCC1 (stereo not drawn)", "%", 94),
    ("CNC(C)Cc1ccc2c(c1)OCO2 (stereo not drawn) [MDMA, reference compound]", "%", 96),
    ("COc1cc2c(cc1CCN1CCCC1)OCO2", "%", 90),
    ("CC(C)(C)OC(=O)NC1CN(CCc2ccc3c(c2)OCO3)C1", "%", 36),
    ("CC(Cc1ccc2c(c1)OCCO2)NCc1cc2c(cc1Br)OCCO2 (stereo not drawn)", "%", 63),
]
